Values were extracted from PubChem BioAssay (NCI).

So I've got a bunch of compounds here, and I need their GI50 values.
- Test system: U251 CNS

Prompt: Please look up its GI50: N=C(N)SCc1c2ccccc2c(CSC(=N)N)c2ccccc12
Completion: 3.13 µM

Prompt: Now consider N#C[Se]CCN1C(=O)C2C(C1=O)[C@H]1C=C[C@@H]2S1 (stereo not given in full) .
Completion: 1.8 µM

Prompt: Okay, and O=[N+]([O-])c1ccc(C2CC(c3ccccc3)=Nc3ccccc3S2)cc1 (stereo not given) ?
Completion: 4.7 µM

Prompt: Then this compound: COc1ccc2c(c1)CC[C@@H]1[C@@H]2CC[C@]2(C)c3c(cc(C(=O)O)c4sccc34)C[C@@H]12
Completion: 16.4 µM

Prompt: Cool, now N#Cc1c(N2CCOCC2)nc(=S)[nH]c1-c1ccccc1
Completion: 60.1 µM
